Assay: soluble on expression in E. coli; label from the status in PepcDB or PDB records

{"sequence entry": "MIRMAQNNKELEKLAYEYQVLQAQAQILAQNLELLNLAKAEVQTVRETLENLKKIEEEKPEILVPIGAGSFLKGVIVDKNNAIVSVGSGYAVERSIDEAISFLEKRLKEYDEAIKKTQGALAELEKRIGEVARKAQEVQQKQSMTSFKVKK", "soluble on expression in E. coli": "soluble"}
{"sequence entry": "AIAATPTEHEDLSEQEVTEDEFKTPKIRETPEDIKLEAIVNTIAFHPKQDILAAGDIDGDIYLFSYSCTEGENKELWSSGHHLKSCRKVLFSSDGQKLFSVSKDKAIHIMDVEAGKLETRIPKAHKVPINAMLLIDENIFATGDDEGTLKVWDMRKGTSFMDLKHHEDYISDITIDQAKRTLLTSSGDGTLGVFNIKRRRFELLSEIQNGDLTSVSIMKRGRKVVCGSGEGTIYIFNWNGFGATSDRFAVQAESVDCIVPITDSILCAASTDGVIRAINILPNRVVGSIGQHVGEAIEEIARCRDTHFLASCAHDELIKFWDISSLPDEKVNDYRRRKKKDRRLKALSNKAFDTGQNFFAGLLDTTEENGKEGENDEDDDDEDSDSGSD", "soluble on expression in E. coli": "soluble"}

----------
Experiment: soluble on expression in E. coli; label from the status in PepcDB or PDB records
measurement type: soluble on expression in E. coli

Previously resolved entries follow.
{"sequence entry": "MSFVNVDPFGMLAAAATLESLGSHMAVSNAAVASVTTKVPPPAADYVSKKLSLFFSSHGQQYQVQAARGTAFHRKLVRTLANGALAYEEVEIANNEGF", "soluble on expression in E. coli": "not soluble"}
{"sequence entry": "MGSDKIHHHHHHMIDPAGRTTAWEYDAYGSLLVQTLPDGSAVRTEFDLDHRPVCMTLIGGRQWGYEWNTFGNLLAQSDPSGAISRYTYDEYGQLVEHTGPRGASTRFDYHPDGNLAAQIDALGHRTQYRYDARGYLGEAIDALGQQSQYEYDRNGHLTRAIEPGGREIHCAYDADGNLSRHRDPMGHVTQMEYSALGQVSRRLAPDGTTVEYRYDTEEQLIGVVNERSELYALERDALGRIVVETDYWGQARRYRYGAAGELLCSTDPLGQTVEYRYDWLGRIVQKRVPHPEQDEALQIDSFAYDRHGDLVLAENPSCRVEFDYDAAGRMIEERQGDDFTIASDYDEAVTCPLR", "soluble on expression in E. coli": "not soluble"}
{"sequence entry": "MKPILALLSLLALPVMAAEPTLYGRYENIKVLEIGQTFKAKMDTGALTASLSAKDIELFQRDGDDWVRFRLATKGADDKVYEHKVSRISKIKGRAEGDDEDDEGINPAKRPVVDLELCLGNKKRTVEVNLVDRSHFNFPLLIGAKALREFGAAINPARRYTADEPDC", "soluble on expression in E. coli": "not soluble"}
{"sequence entry": "MGSDKIHHHHHHENLYFQGAVDLDREGRDPAYVESIVKRSQKIVDKLELTDTVAAREVTTIIANRYFKLNDIYETRDAKVKLAKETLTGDAKQEAVKAAEAEKDAALYRTHFAFPADLSLYLDAKQIDAVKDGMTYGVVMVTYKATVDMIPTLKEEEKAQIMAWLVEAREFAMDAENSNKKHAAFGKYKGRINNYLSKRGYDLVKERKAWYERIKARGGKI", "soluble on expression in E. coli": "soluble"}
{"sequence entry": "MGHHHHHHSHMEHPLEMPICAFQLPDLTVYNEDFRSFIERDLIEQSMLVALEQAGRLNWWVSVDPTSQRLLPLATTGDGNCLLHAASLGMWGFHDRDLMLRKALYALMEKGVEKEALKRRWRWQQTQQNKESGLVYTEDEWQKEWNELIKLASSEPRMHLGTNGANCGGVESSEEPVYESLEEFHVFVLAHVLRRPIVVVADTMLRDSGGEAFAPIPFGGIYLPLEVPASQCHRSPLVLAYDQAHFSALVSMEQKENTKEQAVIPLTDSEYKLLPLHFAVDPGKGWEWGKDDSDNVRLASVILSLEVKLHLLHSYMNVKWIPLSS", "soluble on expression in E. coli": "soluble"}
{"sequence entry": "MGSDKIHHHHHHMDQSWVNQAIAKIEADYQRSADTHLIKLELPMLPCIDIYLKDESTHPTGSLKHRLARSLFLYALCNGWITQDTPIIESSSGSTAVSEAYFARLLGLPFIAVMPASTAKKKIQQIEFYGGRCHFVEHSSQIYAESQRLAEELSGHYMDQFTYAERATDWRGNNNIANSIFEQMQREPHPVPSWIVMSPGTGGTSATIGRYIRYQCAKTKLCVVDPENSVFYDYYHSGDASISCAGASRIEGIGRPRAEPSFIPGVVDHMVKIDDSASIATIYWLETLIGRKAGPSTGTNLYGALQLASEMHANGQTGSIVTLLCDSGDRYLDTYYDKQWVDEHIGDITEYQAKLAAFNESGHLE", "soluble on expression in E. coli": "not soluble"}
{"sequence entry": "MIPGGNTLKETAVVPAATGYDRIAFIYDIIAGIASFDQINKSQLAFLSSIPTQSTCLILGGGTGYFLQKLLEQNATIQVTYVDASQKMIEFAQKRIAEKKPYDAHRVTFVCKQVNVFEFDTYDSIVCNYFLDLFEEADVTMLIKKFKKHLKKDGILYITDFTMPIRTGIIEWSAKAGLKVLYWFFKRTTSLSNNQLPDIESVVLKQDFIKLHSADFFKGILRCSLYR", "soluble on expression in E. coli": "not soluble"}
{"sequence entry": "MIFYFSGTGNSKWIANQLSKEQQEDLFFIPDAWKNDTWEFSLREDEKIGFVFPVYSWAPPVIVQEFIRKLVLKGYQQQYLFFVCSCGDDTGLTRQVMEKALAARGWRCNAGFSVIMPNNYVLFLGFDVDSKELEKKKLAEAVPALEKVSRLITGRETVFACKEGSLPFIKTRIINPLFVRYQMSPKPFHATSECIGCKRCEKSCPVGNITMKERRPVWGKNCTACLACYHVCPQHAVQYGKKTKGKGHYFNPDSAY", "soluble on expression in E. coli": "not soluble"}

Inquiry: Request the reported soluble on expression in E. coli associated with `MGSDKIHHHHHHMSLFNLSLVTFEIDHEDCWSKLTSSFPVQVKTIFAKPSKGKDYILGMDEVKTYNRRVFKDFLKSFKKEKSIYEIIQILELDSRRGIYRILFKERYENMIMSIIENYMTLYIKDLIKEGNERLLLIMPSSDVTMLKRDLESIGKIHYFNAKLVNFNDFVPTFFDFSEQERNAVLHAIRLGYYEYPRRINLEELGKIMGISKPTLEEYLRKAEKKIMSKIFREFYQQDLLFHSPDY`
Reply text: not soluble

Inquiry: soluble on expression in E. coli lookup needed for `MAHHHHHHMKINLSFNKNKENKNRNKNGDTDIDNDTRNNKSYKENNPMTRNKIETIFSMSDDEETINYENTHNKIIQQKKENQLNDKIKEYIKEHEEPALTTHEKKEDKKERIDEKNNKKKIQYLGYKSNELTKLNNPKTDDSYDYPFEEKEIYDNLDEKERKKKTIEHNDKDGHEYYKKDHKNHKKYTRSHENDNEVNAYNKDCDVRNKTIDKKTYMKKYDKNIQDYEKKKKKSENSDDDVNRSYLCIDDIFKKKENIDGKKKSKYMEALINSAKRRELEKEFLIQKKQKIDTEKEEKVFVTSAYKKKLMDRELIKKDMDLEVEEKKVDKSSNYNLNLFLKNINAPSNYNRYNRR` , thanks.
Reply text: soluble

Inquiry: Need soluble on expression in E. coli, item `MSLCELLGMSANVPTDICFSFTGLMQRGGKTGPHRDGWGIAFYEGKGFRTFKDPNPSSQSKIAELVQQYPIKSRAVISHIRQANRGGVNLENTHPFTRELWGQYWTFAHNGQLTGYQNLVTGRHRPVGETDSELAFCWLLNQMEQCYPEGPQDWPEMLRYVAQCCDELRALGVFNMLLSNGEYVMAYCTNHLYWITRRAPFGCAALLDEDVEINFQEETTPNDVVSVIATQPLTGNETWQRMKPGQFAFFHFGERIEDNAHVLMDVGFAPNRPGCQAPSQPLDEGGSHHHHHH`
Reply text: soluble

----------
Test: soluble on expression in E. coli; label from the status in PepcDB or PDB records
measurement type: soluble on expression in E. coli

Below, each entry is followed by its recorded soluble on expression in E. coli result.
{"sequence entry": "MKPMTQEPSTLYAKLLGETASITWTELQPFFAKGALLWVELPLDLIEVAEAVAENDAARVSAWLADGQVGKVSETKALELVETDPQLWAVVVAPWVLIQNRANV", "result": "not soluble"}
{"sequence entry": "VGAPLAVELDRSSPVPLYFQLAQTIENAIIGGELAPGDRFENELALAKRLNLSRPTTRRAIQELVDKGLLVRKRGVGTQVVQSAVHRPVELTSLFDDLARAGQSPTTKLLDYQVSVPAEDVAAELNLQPGAEVASIRRLRSTNGEPLALMTNHIPVDLAPDPEELEAHGLYHALRARGVHIRLARQRIGAKAASKAEASLLDEKTGAPLLTMNRTAFDDSGSAVEFGSHCYRASRYYFDTTVVDR", "result": "not soluble"}
{"sequence entry": "MSLSEVDIAKADPAAASHPLLLNGDATVAQKNPGSVAENNLCSQYEEKVRPCIDLIDSLRALGVEQDLALPAIAVIGDQSSGKSSVLEALSGVALPRGSGIVTRCPLVLKLKKLVNEDKWRGKVSYQDYEIEISDASEVEKEINKAQNAIAGEGMGISHELITLEISSRDVPDLTLIDLPGITRVAVGNQPADIGYKIKTLIKKYIQRQETISLVVVPSNVDIATTEALSMAQEVDPEGDRTIGILTKPDLVDKGTEDKVVDVVRNLVFHLKKGYMIVKCRGQQEIQDQLSLSEALQREKIFFENHPYFRDLLEEGKATVPCLAEKLTSELITHICKSLPLLENQIKETHQRITEELQKYGEGHHHHHH", "result": "not soluble"}
{"sequence entry": "MGSDKIHHHHHHMSNVTAEQKKEVKGRGFLPSRDGEHFAARIITVNGVINASQAKKIAEAAEKFGNGQLAFTTRLTVELPGVKFEDIEALSEFIASENLITGGTGSRVRPVVACKGTVCVHGLADTQALAAEIHEEFYKNWYDVKLPHKFKIGVGGCPNNCIKPDLNDLGIVGQRVPDYDSELCVGCKKCAVVEVCPVKAAKLTDKGKLEIDSNLCNNCGKCIESCNFDSIEEKESGYKVYIGGKWGKSVRPGTQIDRLFSKEELMTLIEKAILLFREQGNTGERFGITIDRIGADKFIEMLLSDEVLERKEEILEALLHLTGGAVC", "result": "not soluble"}

Inquiry: // query soluble on expression in E. coli value for entry `MSLSNDGRRQIIESAGRSMAEGYAETLRAIDPTLAINLFSPADEADRLPAPLSSYDGVVVTGSSLHVYRTEPAVTRQIDFLREVFDAGVPVFGSCWGLQLGVVAAGGTVIPNPKRREVPFARSVTLTAAGKTHQMHQSRPAAFDALAIHLDVVSVLPPDSVVTAFNDMAAVQAVEFRSGRSLFWGVQYHPEFELPYMASILRRNASSLVAEAAFSSEGELVEMVDAMDSHGNDGDRVRHPSLLPDDVLDRHTRTIEIANWLKMLSSGEGHHHHHH`
Reply text: not soluble

Inquiry: Look up soluble on expression in E. coli for this sequence: `MSLTDDRYTVISADCHAGADLLDYRPYLAKRHHDAFDAWAATYVNPYEDLLADTADRNWNSERRLAELAADGIVAEVVFPNTIPPFFPSASLMAPAPTAAEFEQRWAGLRAHNRWLADFCAAAPGRRAGVFQILLNDVEEAVKEISWAAGAGLRGGLLLPGTPPGSGLPELYSKAYDPIWAVCEELDVPVNHHAGSASPPLGDEPAARAVFMVETTWFSHRALWHLVFGGAFRRHPGLRLVLTEQGSGWIPGVLDMLDYYHGRLVAAGPKSATAEAKFGAGLDRAMGKGPSEVWRDNCFVGASFMRPHEVPLRDRIGLDKIMWGSDYPHDEGTYPYSREGLRIAYAGLPRTEIAAMAGGNAARVYGFDLSEGHHHHHH`
Reply text: soluble

Inquiry: What does the record list as soluble on expression in E. coli for `MRGLTPEQTLMLADAFCAQTSGDLSVRDYAALNAIAAVTTAHIHAVVVFPTAHHMVKYVRSLVIQLSPLDDRNTDFADFLVAVLRDLNGL` ?
Reply text: not soluble

Inquiry: If you can, please state the reported soluble on expression in E. coli value of `GPGSMTYCPITRKELERYLPNFDPLLDPQIGEWVLVTPERRFAILGPLLQFVQEHAIKPIYPFLDNSEPSSAPVTTFNFCKEDSPKTLGDPSKVFPTLSEVWRRYRRRRFHISGMDEDGIGEEEENDDTILYLNPRALLLTPCAPAVFGGSDFIEGLDREGERVVFVNWKTGETRTDSGVLKPAPIPAWAEDVAEKAAMEWESWKKCVIPPSSTRE` .
Reply text: soluble

Inquiry: Which soluble on expression in E. coli value belongs to `MGSDKIHHHHHHETEAPQVTTSSRPAVEIKYNDPRDPFEEVNRTMWDFNYLFLDRYVIRPVAHGYKDYVPNPVRTGVNNFVYNLEEPSSLVNNTLQGKWGWAANAGGRFTVNTTIGLLGLVDVADMMGMHRKQDDFNEVLGYYGTPNGPYFMAPFYGPIVTREIASDWVDGLYFPLSELTIWQSVLKWGLKGLDARSKAIDQERLLDNALDPYAFVKDAYLQHMDYKVFDGDVPSSQADDELLDEYLDELE` ?
Reply text: not soluble

Inquiry: Would you kindly share the measured soluble on expression in E. coli for `WLRPAFAGKTRLDALDEAAFEQAVKSLLSWTQHALIDRHVPAHIIVPSGMGRHIDYGLADDGTPQPPVLSVKLQELFGLPDTPRIAKNRIPLTLHLLSPGGRPLQVTQDLKSFWTNTYPEVKKEMKGRYPKHPWPDDPWTATATHRTKSPGK` ?
Reply text: not soluble

Inquiry: Quick one: soluble on expression in E. coli for `MSLGEVCEIMQAYGGVSIVNALPSWYGSSMAINLKVKVEIREGKRVYSQESELIKTILNYFKEKYSIPDIEVDIESELPQKSGLKSSSAVSVALIAEIAKQYDLRNINPPILSAILSLKAGVSYTGALDDAVASYCGGIAFTYNKMFRIVKLENLEDNLSILILAKGGRQKPVNLNELRKYSHVFEEIFKIALKDYLTAMKMNGILIANILGYSLEPIEIALKKGALAAGISGNGPSYFAVSKNGEEGPIYESLKKFGDVIIVRPVSLDCKDLSIKEGHHHHHH` ?
Reply text: not soluble

Inquiry: Fill in the blank: the reported soluble on expression in E. coli of `METSMRYTSNSKSMKIHAKEKVPVNSKTHLQLHGELDTGTGAPSYFCAMIRHFFPEASTGLGVGLHYDKRQKLRCLVRGKKEFPVRADKRVTFNIKGRCDIDQDLNQKNPKGAAEFAWNIMDFKEDQDVRIKVGYEMFDKVPYMQIRENNWTLNANMKGKWNLRYDL` is ____.
Reply text: not soluble
